These measurements were taken from ChEMBL document CHEMBL4627348.

test: Cytotoxicity against HEK293T cells assessed as growth inhibition at 20 uM after 48 hrs by CCK8 assay relative to control; format: cell-based, HEK-293T; conditions: human, HEK293T cells; read-out: GI
Mark Met for reported inhibition at 48 h, 20 µM of 20% or greater; mark Not met for anything smaller.

>>> print(df.to_string())
                          structure_notation  class_assignment
 0  Cc1ccc(Cc2nnc(NC(=O)/C(C#N)=C/c3ccccc3OS(=O)(=O)c3ccc(Cl)cc3)s2)cc1           Not met
 1  COc1ccc(Cc2nnc(NC(=O)/C(C#N)=C/c3ccccc3OS(=O)(=O)c3ccc(OC)cc3)s2)cc1               Met
 2  N#C/C(=C\c1ccccc1OS(=O)(=O)c1ccc(Cl)cc1)C(=O)Nc1nnc(Cc2ccccc2)s1               Met
 3  N#C/C(=C\c1ccccc1OS(=O)(=O)c1ccc(Cl)cc1)C(=O)Nc1nnc(Cc2ccc(Cl)cc2)s1           Not met
 4  Cc1ccc(Cc2nnc(NC(=O)/C(C#N)=C/c3ccccc3OS(=O)(=O)c3ccccc3[N+](=O)[O-])s2)cc1           Not met
 5  N#C/C(=C\c1cccc(NS(=O)(=O)c2ccc(F)cc2)c1)C(=O)Nc1nnc(-c2cccs2)s1               Met
 6  CS(=O)(=O)Oc1ccc(/C=C(\C#N)C(=O)Nc2nnc(-c3cccs3)s2)cc1           Not met
 7  N#C/C(=C\c1ccccc1OS(=O)(=O)c1ccccc1[N+](=O)[O-])C(=O)Nc1nnc(Cc2ccc(F)cc2)s1           Not met
 8  N#C/C(=C\c1ccccc1OS(=O)(=O)c1ccc(Cl)cc1)C(=O)Nc1nnc(Cc2cccc(F)c2)s1               Met
 9  N#C/C(=C\c1ccccc1OS(=O)(=O)c1ccc([N+](=O)[O-])cc1)C(=O)Nc1nnc(-c2cccs2)s1               Met
10  Cc1ccc(S(=O)(=O)Oc2cccc(/C=C(\C#N)C(=O)Nc3nnc(-c4ccccc4Cl)s3)c2)cc1               Met
11  N#C/C(=C\c1ccccc1OS(=O)(=O)c1ccccc1[N+](=O)[O-])C(=O)Nc1nnc(Cc2ccccc2)s1           Not met
12  N#C/C(=C\c1ccccc1OS(=O)(=O)c1ccc([N+](=O)[O-])cc1)C(=O)Nc1nnc(Cc2cccc3ccccc23)s1               Met
13  Cc1ccc(S(=O)(=O)Oc2cccc(/C=C(\C#N)C(=O)Nc3nnc(-c4ccccc4)s3)c2)cc1               Met
14  Cc1ccc(S(=O)(=O)Oc2ccccc2/C=C(\C#N)C(=O)Nc2nnc(Cc3ccc(F)cc3)s2)cc1           Not met
15  COc1ccc(S(=O)(=O)Oc2ccccc2/C=C(\C#N)C(=O)Nc2nnc(-c3cccs3)s2)cc1               Met

====

system: HEK-293T; test: Cytotoxicity against human HEK293T cells assessed as growth inhibition after 48 hrs by CCK8 assay; format: cell-based
READOUT KIND: IC50

>>> df
                          structure_notation  assay_result
 0  Cc1ccc(S(=O)(=O)Oc2cccc(/C=C(\C#N)C(=O)Nc3nnc(C)s3)c2)cc1       > 50 µM
 1  N#C/C(=C\c1ccccc1OS(=O)(=O)c1ccc(C(F)(F)F)cc1)C(=O)Nc1nnc(-c2cccs2)s1       12.3 µM
 2  Cc1ccc(S(=O)(=O)Oc2cccc(/C=C(\C#N)C(=O)Nc3nnc(-c4cccs4)s3)c2)cc1       > 20 µM
 3  COc1ccc(S(=O)(=O)Oc2ccccc2/C=C(\C#N)C(=O)Nc2nnc(Cc3ccc(Cl)cc3)s2)cc1       > 50 µM
 4  COc1ccc(S(=O)(=O)Oc2ccccc2/C=C(\C#N)C(=O)Nc2nnc(Cc3ccccc3)s2)cc1       > 50 µM
 5  COc1ccc(S(=O)(=O)Nc2cccc(/C=C(\C#N)C(=O)Nc3nnc(-c4cccs4)s3)c2)cc1       > 20 µM
 6  COc1ccc(Cc2nnc(NC(=O)/C(C#N)=C/c3ccccc3OS(=O)(=O)c3ccc([N+](=O)[O-])cc3)s2)cc1       > 50 µM
 7  CC(=O)Nc1ccc(S(=O)(=O)Oc2cccc(/C=C(\C#N)C(=O)Nc3nnc(-c4cccs4)s3)c2)cc1       > 20 µM
 8  COc1ccc(S(=O)(=O)Oc2ccccc2/C=C(\C#N)C(=O)Nc2nnc(Cc3cccc(F)c3)s2)cc1       > 50 µM
 9  COc1ccc(S(=O)(=O)Oc2ccccc2/C=C(\C#N)C(=O)Nc2nnc(Cc3ccc(F)cc3)s2)cc1       > 50 µM
10  N#C/C(=C\c1ccccc1OS(=O)(=O)c1ccc(OC(F)(F)F)cc1)C(=O)Nc1nnc(-c2cc3ccccc3[nH]2)s1       14.4 µM
11  COc1ccc(Cc2nnc(NC(=O)/C(C#N)=C/c3ccccc3OS(=O)(=O)c3ccc(OC)cc3)s2)cc1       > 50 µM
12  COc1ccc(S(=O)(=O)Oc2ccccc2/C=C(\C#N)C(=O)Nc2nnc(Cc3cccc4ccccc34)s2)cc1       > 50 µM
13  Cc1ccc(S(=O)(=O)Oc2ccccc2/C=C(\C#N)C(=O)Nc2nnc(C)s2)cc1       > 20 µM
14  COc1ccc(S(=O)(=O)Oc2ccccc2/C=C(\C#N)C(=O)Nc2nnc(Cc3ccc(C)cc3)s2)cc1       > 50 µM
15  COc1ccc(S(=O)(=O)Oc2ccccc2/C=C(\C#N)C(=O)Nc2nnc(-c3cccs3)s2)cc1       > 20 µM
16  COc1ccc(Cc2nnc(NC(=O)/C(C#N)=C/c3ccccc3OS(=O)(=O)c3ccc(Cl)cc3)s2)cc1       > 50 µM

====

The following compounds are listed with their measured IC50 values.
tested on: HL-60; test: Antiproliferative activity against human HL60 cells assessed as growth inhibition after 48 hrs by CCK-8 assay; assay type: functional, cell-based; conditions: HL-60, 48 h
READOUT KIND: IC50 (µM)

                         structure_notation  assay_result
0  COc1ccc(S(=O)(=O)Oc2ccccc2/C=C(\C#N)C(=O)Nc2nnc(Cc3ccc(F)cc3)s2)cc1          4.05
1  CC(=O)Nc1ccc(S(=O)(=O)Oc2cccc(/C=C(\C#N)C(=O)Nc3nnc(-c4cccs4)s3)c2)cc1          7.94
2  Cc1ccc(S(=O)(=O)Oc2cccc(/C=C(\C#N)C(=O)Nc3nnc(C)s3)c2)cc1          5.78
3  Cc1ccc(S(=O)(=O)Oc2ccccc2/C=C(\C#N)C(=O)Nc2nnc(C)s2)cc1          11.5
4  COc1ccc(S(=O)(=O)Oc2ccccc2/C=C(\C#N)C(=O)Nc2nnc(Cc3cccc4ccccc34)s2)cc1           4.7
5  COc1ccc(S(=O)(=O)Oc2ccccc2/C=C(\C#N)C(=O)Nc2nnc(Cc3cccc(F)c3)s2)cc1          3.88
6  COc1ccc(Cc2nnc(NC(=O)/C(C#N)=C/c3ccccc3OS(=O)(=O)c3ccc(OC)cc3)s2)cc1          3.12
7  COc1ccc(S(=O)(=O)Oc2ccccc2/C=C(\C#N)C(=O)Nc2nnc(-c3cccs3)s2)cc1          5.23

====

The following compounds are listed with their measured inhibition at 48 h, 20 µM values.
assay: Cytotoxicity against HEK293T cells assessed as growth inhibition at 20 uM after 48 hrs by CCK8 assay relative to control; type: cell-based, HEK-293T; conditions: human, HEK293T cells; read-out: GI
READOUT KIND: inhibition at 48 h, 20 µM (%)

In [3]: df
Out[3]:
                         structure_notation  assay_result
0  Cc1ccc(S(=O)(=O)Oc2cccc(/C=C(\C#N)C(=O)Nc3nnc(-c4cccs4)s3)c2)cc1            43
1  COc1ccc(S(=O)(=O)Nc2cccc(/C=C(\C#N)C(=O)Nc3nnc(-c4cccs4)s3)c2)cc1            21
2  COc1ccc(Cc2nnc(NC(=O)/C(C#N)=C/c3ccccc3OS(=O)(=O)c3ccc([N+](=O)[O-])cc3)s2)cc1            17
3  COc1ccc(S(=O)(=O)Oc2ccccc2/C=C(\C#N)C(=O)Nc2nnc(Cc3cccc(F)c3)s2)cc1            29
4  N#C/C(=C\c1ccccc1OS(=O)(=O)c1ccc(Cl)cc1)C(=O)Nc1nnc(Cc2ccc(F)cc2)s1             6
5  COc1ccc(S(=O)(=O)Oc2ccccc2/C=C(\C#N)C(=O)Nc2nnc(Cc3cccc4ccccc34)s2)cc1            29
6  N#C/C(=C\c1ccccc1OS(=O)(=O)c1ccc(OC(F)(F)F)cc1)C(=O)Nc1nnc(-c2cccs2)s1            42
7  N#C/C(=C\c1ccccc1OS(=O)(=O)c1ccccc1[N+](=O)[O-])C(=O)Nc1nnc(Cc2ccc(Cl)cc2)s1            20
